System: PC12 cells
Assay: MTT toxicity (safety evaluation) on PC12 nerve cells
Type: cell-based
Conditions: PC12, 15 μM, 24 h
For each of the compounds below, state its Relative growth rate (%) 24 h.
Give bare numbers, in %.

// known answers, use as guide
structure_as_smiles=O=C1/C(=C/c2cc(Cl)c(O)c(Cl)c2)CNC/C1=C\c1cc(Cl)c(O)c(Cl)c1 experimental_system="PC12 cells" result=99.46
structure_as_smiles=COc1cc(/C=C2\CN(C(C)C)C/C(=C\c3cc(Cl)c(O)c(OC)c3)C2=O)cc(Cl)c1O experimental_system="PC12 cells" result=62.32
structure_as_smiles=CCN1C/C(=C\c2cc(Cl)c(O)c(Cl)c2)C(=O)/C(=C/c2cc(Cl)c(O)c(Cl)c2)C1 experimental_system="PC12 cells" result=88.25
structure_as_smiles=CC(C)N1C/C(=C\c2cc(Cl)c(O)c(Cl)c2)C(=O)/C(=C/c2cc(Cl)c(O)c(Cl)c2)C1 experimental_system="PC12 cells" result=99.06
structure_as_smiles=COc1cc(/C=C2\CNC/C(=C\c3cc(Cl)c(O)c(OC)c3)C2=O)cc(Cl)c1O experimental_system="PC12 cells" result=98.55
structure_as_smiles=COc1cc(/C=C2\CN(C)C/C(=C\c3cc(Cl)c(O)c(OC)c3)C2=O)cc(Cl)c1O experimental_system="PC12 cells" result=60.78

Please examine the following record next.
Give reported Relative growth rate (%) 24 h value for CN1C/C(=C\c2cc(Cl)c(O)c(Cl)c2)C(=O)/C(=C/c2cc(Cl)c(O)c(Cl)c2)C1 95.08

====

Assignment: determine reported Relative growth rate (%) 24 h for the given compounds.
Tested on: PC12 cells
Assay: MTT toxicity (safety evaluation) on PC12 nerve cells
Format: cell-based
Details: PC12, 3.75 μM, 24 h
Protocol: The toxicity of each drug to PC12 cells was determined by MTT assay. […] The blue-purple crystal formazan can be dissolved by DMSO, and the absorbance value is measured by a microplate reader at a wavelength of 490 nm, which in turn reflects the number of living cells. […]
Numbers only, in %.

These solved cases illustrate the format of a correct answer.
structure_as_smiles=COc1cc(/C=C2\CN(C)C/C(=C\c3cc(Cl)c(O)c(OC)c3)C2=O)cc(Cl)c1O property_label="Relative growth rate (%) 24 h" result=99.04
structure_as_smiles=COc1cc(/C=C2\CNC/C(=C\c3cc(Cl)c(O)c(OC)c3)C2=O)cc(Cl)c1O property_label="Relative growth rate (%) 24 h" result=98.50
structure_as_smiles=COc1cc(/C=C2\CN(C(C)C)C/C(=C\c3cc(Cl)c(O)c(OC)c3)C2=O)cc(Cl)c1O property_label="Relative growth rate (%) 24 h" result=89.59
structure_as_smiles=O=C1/C(=C/c2cc(Cl)c(O)c(Cl)c2)CNC/C1=C\c1cc(Cl)c(O)c(Cl)c1 property_label="Relative growth rate (%) 24 h" result=104.22
structure_as_smiles=CCN1C/C(=C\c2cc(Cl)c(O)c(Cl)c2)C(=O)/C(=C/c2cc(Cl)c(O)c(Cl)c2)C1 property_label="Relative growth rate (%) 24 h" result=96.25

Look up Relative growth rate (%) 24 h for the entries below, preserving their order.
1. CN1C/C(=C\c2cc(Cl)c(O)c(Cl)c2)C(=O)/C(=C/c2cc(Cl)c(O)c(Cl)c2)C1
2. CC(C)N1C/C(=C\c2cc(Cl)c(O)c(Cl)c2)C(=O)/C(=C/c2cc(Cl)c(O)c(Cl)c2)C1

1. 102.93
2. 98.54
